# Test system: HEK293
# TEST_NAME: Cytotoxicity against human HEK293 cells after 72 hrs by […] CellTiterGlo reagent assay
# Format: cell-based
# APPLIED_CONDITIONS: HEK293, 72 h
pEC50: −log10 of the molar value.
VALUE_TYPE: pEC50

These recorded examples may help you get a feel for the data.
CCCN(Cc1cccc(OCCCCCC(=O)O)c1)C(=O)c1ccc(-c2ccc3c(c2)OCO3)cc1
< 4.58
CC(C)N(Cc1cccc(OCCCCCC(=O)O)c1)C(=O)c1ccc(-c2cccc(Cl)c2)cc1
< 4.66
COc1ccc(C(=O)C(Br)N=[N+]=[N-])cc1OC (stereo not given)
< 4.89
CCOC(=O)CCCCCOc1cccc(CN(C(=O)c2ccc(-c3cccc(OCC(C)C)c3)cc2)C(C)C)c1
< 4.58
CCOC(=O)CCCCCOc1cccc(CN(C(=O)c2ccc(-c3ccoc3)cc2)C(C)C)c1
< 4.58

Please go through the list and note pEC50 for each compound.
1. CCOC(=O)CCCCCOc1cccc(CN(C(=O)c2ccc(-c3ccc(C(C)=O)s3)cc2)C(C)C)c1
2. CC(C)N(Cc1cccc(OCCCCCC(=O)O)c1)C(=O)c1ccccc1
3. COc1cc(C)ccc1OCCOc1ccccc1F
4. COc1cc(F)cc(-c2ccc(C(=O)N(Cc3cccc(OCCCCCC(=O)O)c3)C(C)C)cc2)c1

Given back:
< 4.58
< 4.58
< 4.58
< 4.58

# lookup: CC(C)Oc1cccc(-c2ccc(C(=O)N(Cc3cccc(OCCCCCC(=O)O)c3)C(C)C)cc2)c1 on HEK293, pEC50 = < 4.58

====

# Test system: HEK293
# TEST_NAME: Cytotoxicity against human HEK293 cells after 72 hrs by […] CellTiterGlo reagent assay
# Type: cell-based
# APPLIED_CONDITIONS: HEK293, 72 h
Exercise: for every item that follows, state its recorded EC50.

CCCN(Cc1ccccc1OCCCCCC(=O)OCC)C(=O)c1ccc(-c2ccc3c(c2)OCO3)cc1
> 26 µM

Count: 7. Required value per item: EC50.
1. CC(C)N(Cc1cccc(OCCCCCC(=O)O)c1)C(=O)c1ccc(-c2ccc3ccccc3c2)cc1
2. CCOC(=O)CCCCCOc1cccc(CN(C(=O)c2ccc(-c3cccc(F)c3)cc2)C(C)C)c1
3. CCOC(=O)CCCCCOc1cccc(CN(C(=O)c2ccc(-c3cn(S(=O)(=O)c4ccccc4)c4ccccc34)cc2)C(C)C)c1
4. COc1cc2c(cc1OC)C(CC1(C)OCCO1)=NCC2
5. CCCN(Cc1ccc(OCCCCCC(=O)O)cc1)C(=O)c1ccc(-c2ccc3c(c2)OCO3)cc1
6. CC(C)N(Cc1cccc(OCCCCCC(=O)O)c1)C(=O)c1ccc(-c2cccc(CC#N)c2)cc1
7. COC(=O)CCCC1=NCCc2cc(OC)c(OC)cc21

Given back:
> 26 µM
> 26 µM
> 26 µM
> 13 µM
> 26 µM
> 26 µM
> 13 µM

What the record says about C=CCCC(=O)NC[C@H](O)c1ccc2c(c1)OCO2 : EC50 is > 13 µM

====

I'd appreciate it if you could supply EC50 values for the items below.
# System: HEK293
# TEST_NAME: Cytotoxicity against human HEK293 cells after 72 hrs by […] CellTiterGlo reagent assay
# Format: cell-based
# APPLIED_CONDITIONS: HEK293, 72 h

For every item in the list below, what is its measured EC50?
1. CCOC(=O)CCCCCOc1cccc(CN(C(=O)c2ccc(Br)cc2)C(C)C)c1
2. CCOC(=O)CCCCCOc1cccc(CN(C(=O)c2ccc(-c3cccc(OC(C)C)c3)cc2)C(C)C)c1
3. CCOC(=O)CC(=O)NCC(OCC)(OCC)c1ccc2c(c1)OCO2
4. CC(C)N(Cc1cccc(OCCCCCC(=O)O)c1)C(=O)c1ccc(-c2ccc3c(c2)OCO3)cc1

Given back:
1. > 26 µM
2. > 26 µM
3. > 13 µM
4. > 26 µM

Briefly, EC50 measured for CC(C)N(Cc1cccc(OCCCCCC(=O)O)c1)C(=O)c1ccc(-c2ccc3cc[nH]c3c2)cc1 : > 26 µM

====

# Tested on: HEK293
# TEST_NAME: Cytotoxicity against human HEK293 cells after 72 hrs by […] CellTiterGlo reagent assay
# Type: cell-based
# APPLIED_CONDITIONS: HEK293, 72 h
pEC50: −log10 of the molar value.
VALUE_TYPE: pEC50

CCCNCc1ccc(OCCCCCC(=O)OCC)cc1
< 4.58
CCOC(=O)CCCCCOc1cccc(C=O)c1
< 4.58
CCOC(=O)CCCCCOc1cccc(CN(C(=O)c2ccc(-c3cccc(-c4ccccc4)c3)cc2)C(C)C)c1
< 4.58
CCOC(=O)CCCCCOc1ccc(C(O)O)cc1
< 4.57
CCOC(=O)CCCCCOc1cccc(CN(C(=O)c2ccc(-c3cccc(-c4nnc(C)o4)c3)cc2)C(C)C)c1
< 4.58

For each listed entry, give its pEC50.
1. CCOC(OCC)C1=NCCc2cc(OC)c(OC)cc21
2. CC(=O)Nc1cccc(-c2ccc(C(=O)N(Cc3cccc(OCCCCCC(=O)O)c3)C(C)C)cc2)c1
3. CC(C)N(Cc1cccc(OCCCCCC(=O)O)c1)C(=O)c1ccc(-c2ccncc2)cc1
4. CCOC(=O)CCCCCOc1cccc(CN(C(=O)c2ccc(-c3ccc(Cl)c(Cl)c3)cc2)C(C)C)c1
5. CCOC(=O)CCCCCOc1cccc(CN(C(=O)c2ccc(-c3cccc(Br)c3)cc2)C(C)C)c1
6. CC(C)N(Cc1cccc(OCCCCCC(=O)O)c1)C(=O)c1ccc(-c2cccc(Br)c2)cc1
7. O=C(Nc1ccc2c(c1)OCO2)c1cc(-c2cccs2)nc2ccccc12

Given back:
1: < 4.89; 2: < 4.58; 3: < 4.58; 4: < 4.58; 5: < 4.58; 6: < 4.58; 7: < 4.58

Report pEC50 for every entry below.
1. C=CCCC1=NCCc2cc(OC)c(OC)cc21
2. CC(C)N(C(=O)c1ccc(-c2ccc3c(c2)OCO3)cc1)[C@H](C)c1ccccc1
3. COc1ccc(F)c(-c2ccc(C(=O)N(Cc3cccc(OCCCCCC(=O)O)c3)C(C)C)cc2)c1
4. CC(C)N(Cc1cccc(OCCCCCC(=O)O)c1)C(=O)c1ccc(-c2cccc([N+](=O)[O-])c2)cc1
5. CCCN(Cc1ccc(OCCCCCC(=O)OCC)cc1)C(=O)c1ccc(Br)cc1
6. CCOC(=O)CCCCCOc1cccc(CN(C(=O)c2ccc(-c3cccc(Cl)c3)cc2)C(C)C)c1

Given back:
1. < 4.89
2. < 4.58
3. < 4.58
4. < 4.58
5. < 4.58
6. < 4.73

// for each compound in input: emit pEC50
1. CCOC(=O)CCCCCOc1cccc(CN(C(=O)c2ccc(-c3cc(C(F)(F)F)cc(C(F)(F)F)c3)cc2)C(C)C)c1
2. CCOC(=O)CCCCCOc1cccc(CN(C(=O)c2ccc(-c3ccco3)cc2)C(C)C)c1

Given back:
["< 4.58", "< 4.58"]

====

# Tested on: HEK293
# TEST_NAME: Cytotoxicity against human HEK293 cells after 72 hrs by […] CellTiterGlo reagent assay
# Assay type: cell-based
# APPLIED_CONDITIONS: HEK293, 72 h
pEC50: −log10 of the molar value.
Please go through the items and note down their pEC50.

CC(C)N(Cc1cccc(OCCCCCC(=O)O)c1)C(=O)c1ccc(-c2cccc(OC(F)(F)F)c2)cc1
< 4.58
CCOC(=O)CCCCCOc1cccc(CN(C(=O)c2ccc(-c3cccc(NC(C)=O)c3)cc2)C(C)C)c1
< 4.58
CCCN(Cc1ccccc1OCCCCCC(=O)O)C(=O)c1ccc(-c2ccc3c(c2)OCO3)cc1
< 4.58
CCOC(=O)CCCCCOc1cccc(CN(C(=O)c2ccc(-c3cccc(CC(=O)O)c3)cc2)C(C)C)c1
< 4.58
CCOC(=O)CCCCCOc1ccc(CNC(C)C)cc1
< 4.58

The following compounds each have a reported value; give each one's pEC50.
1. CCOC(=O)CCCCCOc1ccc(C=O)cc1
2. C=CCCN(CCc1ccc(OC)c(OC)c1)C(=O)CC(C)=O
3. COc1ccc(CCNC(=O)CCCCC(C)=O)cc1OC

Given back:
1. < 4.58
2. < 4.89
3. < 4.89

====

# System: HEK293
# TEST_NAME: Cytotoxicity against human HEK293 cells after 72 hrs by […] CellTiterGlo reagent assay
# Type: cell-based
# APPLIED_CONDITIONS: HEK293, 72 h
VALUE_TYPE: EC50

Before answering, review these 5 worked examples.
CCOC(=O)CCCCCOc1cccc(CN(C(=O)c2ccc(-c3cccc(N(C)C)c3)cc2)C(C)C)c1
> 26 µM
CCCNCc1cccc(OCCCCCC(=O)OCC)c1
> 26 µM
C=CCCC1=NCC(OC(C)=O)c2cc(OC)c(OC)cc21 (stereo not given)
> 13 µM
CCOC(=O)CCCCCOc1cccc(CN(C(=O)c2ccc(-c3cccc(OC(F)(F)F)c3)cc2)C(C)C)c1
> 26 µM
CCOC(=O)CCCCCOc1ccc(CO)cc1
> 27.2 µM

List EC50 for every entry below, keeping the order given.
1. CC(C)COc1cccc(-c2ccc(C(=O)N(Cc3cccc(OCCCCCC(=O)O)c3)C(C)C)cc2)c1
2. COc1cc2c(cc1OC)C(C)=NCC2
3. O=C(O)c1cc(-c2cccs2)nc2ccccc12
4. CC(C)N(Cc1cccc(OCCCCCC(=O)O)c1)C(=O)c1ccc(-c2ccc(Cl)c(Cl)c2)cc1
5. CCOC(=O)CCCCCOc1cccc(CN(C(=O)c2ccc(-c3cc4ccccc4n3S(=O)(=O)c3ccccc3)cc2)C(C)C)c1

Given back:
1: > 26 µM; 2: > 13 µM; 3: > 26 µM; 4: > 26 µM; 5: > 26 µM
